biological target: GlcNAc6S(b1-3)Gal(b1-4)GlcNAc; assay: glycan array binding signal (z-score within array); higher = stronger binding; conditions: glycan notation: IUPAC condensed, linker removed
This is one part of a sample in which the strongest signals are shown more often than they occur.
Property: glycan array binding signal (z-score); scope: individual binders

Give recorded glycan array binding signal (z-score). CBM13 2a (Mycobacterium tuberculosum), P64849 (protein) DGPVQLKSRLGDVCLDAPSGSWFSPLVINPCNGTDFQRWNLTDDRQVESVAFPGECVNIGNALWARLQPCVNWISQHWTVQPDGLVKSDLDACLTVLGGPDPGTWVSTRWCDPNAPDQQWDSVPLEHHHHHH
-0.288

Given Wzz (Escherichia coli) (protein) MRTWKFPSVRVMMRVENNNVSGQNHDPEQIDLIDLLVQLWRGKMTIIISVIVAIVLAIGYLAVAKEKWTSTAIITQPDVGQIAGYNNAMNVIYGQAAPKVSDLQETLIGRFSSAFSALAETLDNQEEPEKLTIEPSVKNQQLPLTVSYVGQTAEGAQMKLAQYIQQVDDKVNQELEKDLKDNIALGRKNLQDSLRTQEVVAQEQKDLRIRQIQEALQYANQAQVTKPQIQQTGEDITQDTLFLLGSEALESMIKHEATRPLVFSSNYYQTRQNLLDIDNLDVDKLDIHAYLYVMKPTLPIRRDSPKKAITLILAVLLGGMVGAGIVLGRNALRNYNAK , respond with its glycan array binding signal (z-score).
0.081

Continuing:
Item LF82 (Escherichia coli) (protein) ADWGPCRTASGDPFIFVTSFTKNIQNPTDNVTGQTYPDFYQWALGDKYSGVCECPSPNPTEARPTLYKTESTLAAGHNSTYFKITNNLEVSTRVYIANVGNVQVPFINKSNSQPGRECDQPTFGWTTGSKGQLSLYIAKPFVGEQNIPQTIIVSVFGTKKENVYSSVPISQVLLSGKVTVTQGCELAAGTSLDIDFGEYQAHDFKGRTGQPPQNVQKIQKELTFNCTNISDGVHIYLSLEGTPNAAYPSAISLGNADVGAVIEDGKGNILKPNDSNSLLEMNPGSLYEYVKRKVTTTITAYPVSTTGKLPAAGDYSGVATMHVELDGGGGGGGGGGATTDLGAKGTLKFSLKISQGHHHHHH : provide glycan array binding signal (z-score)
-0.173

Give a short answer stating reported glycan array binding signal (z-score) for RBMC1 (Vibrio cholerae) (protein) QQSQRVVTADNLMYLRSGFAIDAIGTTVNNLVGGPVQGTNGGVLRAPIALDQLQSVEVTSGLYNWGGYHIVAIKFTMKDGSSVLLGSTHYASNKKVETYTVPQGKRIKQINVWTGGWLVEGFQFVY .
-0.267

Tell me its glycan array binding signal (z-score) given GST Gap3 (Streptococcus parasanguinis) (protein) MTKQLISEIYWNEIRKGENYLYGSQIKFQEDLVNFYNPQLASGKPIVTFKSRTNYQGDRHSPDLPILIQGNRYLLEYQIDAVPANSFFLQLDFFNRQAEQIESIVLRNSGESFIFPKDTFTYTLTLMSAGCQSVTYQKFMIYDINDEEKKNHIVENRYLRELLPKDLDLVKNLIEYI as the entry.
-0.145

State its glycan array binding signal (z-score) for this binder: PfulAvr4 2 (Pseudocercospora fuligena) (protein) HHHHHHDYKDDDDKAKPIKPFACPPKDFTTTKCQGPVDCLYANPLSCLGYIQCVCDDDACSTATPYAKSCPTGLAWVEKLKRCDGIKKSACPKKMYEGS
-0.273
